Assay: Approximate solubility of Form I by stepwise dilution of a suspension
Format: physicochemical
Details: formic acid, organic solvent or mixture, thermodynamic from solid; read-out: Solubility [S, mg/mL]
Description: Form I was also tested with respect to solubilities in various water-solvent mixtures and non-aqueous solvents. Solubility studies were conducted by a stepwise dilution of a suspension of about 10 mg of Form I in 0.1 mL of analytical grade solvent. Solubility values are estimated approximations and are subject to variable experimental error.
experimental.endpoint: solubility

Reported solubility for CC#CC(=O)N1CCC[C@H]1c1nc(-c2ccc(C(=O)Nc3ccccn3)cc2)c2c(N)nccn12 [Form I] : what is it?
97 to 194 mg/mL

These entries and their values trace back to patent US20220177476A1.
